These entries and their values trace back to ChEMBL document CHEMBL1800057.

assayTarget: Nitric oxide synthase 3 (Homo sapiens)
Sequence (P29474 whole entry): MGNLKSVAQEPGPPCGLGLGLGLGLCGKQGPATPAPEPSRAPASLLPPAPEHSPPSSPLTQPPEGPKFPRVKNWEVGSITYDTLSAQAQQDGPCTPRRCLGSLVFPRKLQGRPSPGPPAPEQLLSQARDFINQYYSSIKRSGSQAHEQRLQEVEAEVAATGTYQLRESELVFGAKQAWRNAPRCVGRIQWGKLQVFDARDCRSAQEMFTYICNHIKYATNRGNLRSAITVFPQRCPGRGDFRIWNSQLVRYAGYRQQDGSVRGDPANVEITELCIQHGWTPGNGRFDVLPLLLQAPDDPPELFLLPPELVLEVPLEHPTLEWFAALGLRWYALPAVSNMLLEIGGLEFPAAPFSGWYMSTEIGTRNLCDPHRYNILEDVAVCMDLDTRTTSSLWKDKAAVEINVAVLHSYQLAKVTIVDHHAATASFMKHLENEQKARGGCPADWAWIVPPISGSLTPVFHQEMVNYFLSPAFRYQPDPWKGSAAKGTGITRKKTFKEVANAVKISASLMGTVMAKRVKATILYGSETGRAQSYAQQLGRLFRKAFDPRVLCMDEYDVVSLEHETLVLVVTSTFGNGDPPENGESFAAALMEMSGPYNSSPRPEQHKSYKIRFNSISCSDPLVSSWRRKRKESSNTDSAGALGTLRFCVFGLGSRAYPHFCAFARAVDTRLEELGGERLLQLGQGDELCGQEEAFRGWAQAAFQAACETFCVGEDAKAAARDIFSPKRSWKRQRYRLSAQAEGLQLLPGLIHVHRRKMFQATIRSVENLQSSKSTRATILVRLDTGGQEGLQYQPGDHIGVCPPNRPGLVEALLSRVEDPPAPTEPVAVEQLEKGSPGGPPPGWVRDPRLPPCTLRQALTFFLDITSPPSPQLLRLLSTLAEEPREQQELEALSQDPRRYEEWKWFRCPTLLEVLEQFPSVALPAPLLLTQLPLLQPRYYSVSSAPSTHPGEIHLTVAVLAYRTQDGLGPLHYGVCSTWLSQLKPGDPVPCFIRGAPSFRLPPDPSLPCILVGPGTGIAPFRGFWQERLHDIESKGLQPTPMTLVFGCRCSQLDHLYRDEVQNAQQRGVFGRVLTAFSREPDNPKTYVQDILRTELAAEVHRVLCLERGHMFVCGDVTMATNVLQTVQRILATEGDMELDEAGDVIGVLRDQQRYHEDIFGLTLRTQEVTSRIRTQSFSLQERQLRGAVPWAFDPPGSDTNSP
testMethodNotes: Inhibition of human eNOS expressed in HEK293 cells assessed as inhibition A23187 induced nitric oxide production incubated for 24 hrs measured after 18 hrs of […] challenge using 2,3-diaminonaphthalene by fluorescence assay
# Lookup of reported EC50 keyed by entry
Give the value in µM but do not write µM after it.

CCCc1nc2ccccc2n1Cc1cc(=O)[nH]c2c(F)c(F)ccc12 :: 1.3

Query :: Need EC50 of Cc1cnccc1-c1nc2ccccc2n1Cc1cc(=O)[nH]c2c(F)c(F)ccc12 , thanks.
Result :: 1.3

Query :: Item O=c1cc(Cn2c(C3CCC3)nc3ccccc32)c2ccc(F)c(F)c2[nH]1 has what recorded EC50?
Result :: 5.9

Query :: Need EC50 of Cc1ncsc1-c1nc2ccccc2n1Cc1cc(=O)[nH]c2c(F)cccc12 , thanks.
Result :: 15

* * *

testMethodNotes: Cmax in rhesus monkey at 3 mg/kg, iv and 10 mg/kg, po
Type: ADME, organism-based, Macaca mulatta
conditionSet: in vivo
parameterMeasured: Cmax

Consider the worked cases shown below.
CC(C)Cc1nc2nccnc2n1Cc1cc(=O)[nH]c2c(F)c(F)ccc12.Cl :: 210 ng/mL
Cl.O=c1cc(Cn2c(C3CCC3)nc3nccnc32)c2ccc(F)c(F)c2[nH]1 :: 3300 ng/mL
Cl.O=c1cc(Cn2c(C3CCC3)nc3nccnc32)c2cccc(F)c2[nH]1 :: 1800 ng/mL

Proceed to the following item.
Query :: Need Cmax, item Cl.O=c1cc(Cn2c(C3CC(F)(F)C3)nc3nccnc32)c2cccc(F)c2[nH]1
Result :: 3400 ng/mL

* * *

testMethodNotes: Cmax in mouse at 3 mg/kg, iv and 10 mg/kg, po
Format: ADME, organism-based
conditionSet: in vivo
parameterMeasured: Cmax (ng/mL)
Number in ng/mL, nothing else.

Solved entries:
CC(C)c1nc2ccccc2n1Cc1cc(=O)[nH]c2c(F)c(F)ccc12 :: 14000
CC(C)Cc1nc2ccccc2n1Cc1cc(=O)[nH]c2c(F)c(F)ccc12 :: 8700
O=c1cc(Cn2c(C3CC(F)(F)C3)nc3nccnc32)c2cccc(F)c2[nH]1 :: 8800

Then this molecule:
Query :: Which measured Cmax value corresponds to Cc1ncsc1-c1nc2ccccc2n1Cc1cc(=O)[nH]c2c(F)c(F)ccc12 ?
Result :: 3800

* * *

Entries and their half-life values follow.
testMethodNotes: Half life in mouse at 10 mg/kg, po
Assay type: ADME, organism-based
Parameters: dose 10 mg/kg, route oral
conditionSet: in vivo
Number in h, nothing else.

Field: example entries. Status: answers known.
O=c1cc(Cn2c(C3CCC3)nc3ccccc32)c2ccc(F)c(F)c2[nH]1 :: 1.4
Cc1ncsc1-c1nc2ccccc2n1Cc1cc(=O)[nH]c2c(F)c(F)ccc12 :: 3.1
O=c1cc(Cn2c(C3CCC3)nc3nccnc32)c2cccc(F)c2[nH]1 :: 3.1
CC(C)Cc1nc2ccccc2n1Cc1cc(=O)[nH]c2c(F)c(F)ccc12 :: 5.2
CC(C)Cc1nc2nccnc2n1Cc1cc(=O)[nH]c2c(F)c(F)ccc12 :: 1.8

Query :: Dear colleague, I am looking for the recorded half-life of the following compound: CC(C)c1nc2ccccc2n1Cc1cc(=O)[nH]c2c(F)c(F)ccc12
Result :: 2.6

Query :: // returns reported half-life for input O=c1cc(Cn2c(C3CCC3)nc3nccnc32)c2ccc(F)c(F)c2[nH]1
Result :: 2.3

Query :: For the compound O=c1cc(Cn2c(C3CC(F)(F)C3)nc3nccnc32)c2cccc(F)c2[nH]1 , what half-life is on record?
Result :: 2.3

Query :: Field request: half-life | item: CN(C)c1ccnc2c1nc(C1CCC1)n2Cc1cc(=O)[nH]c2c(F)c(F)ccc12
Result :: 1.4
